The reported numbers originate from the kinase profiling compilation of Christmann-Franck et al. (2016).

Examples of compounds with documented kinase still bound, per cent of control follow.
Target: MAP2K1 (human) (UniProt Q02750)
Sequence (Q02750 whole entry, looked up): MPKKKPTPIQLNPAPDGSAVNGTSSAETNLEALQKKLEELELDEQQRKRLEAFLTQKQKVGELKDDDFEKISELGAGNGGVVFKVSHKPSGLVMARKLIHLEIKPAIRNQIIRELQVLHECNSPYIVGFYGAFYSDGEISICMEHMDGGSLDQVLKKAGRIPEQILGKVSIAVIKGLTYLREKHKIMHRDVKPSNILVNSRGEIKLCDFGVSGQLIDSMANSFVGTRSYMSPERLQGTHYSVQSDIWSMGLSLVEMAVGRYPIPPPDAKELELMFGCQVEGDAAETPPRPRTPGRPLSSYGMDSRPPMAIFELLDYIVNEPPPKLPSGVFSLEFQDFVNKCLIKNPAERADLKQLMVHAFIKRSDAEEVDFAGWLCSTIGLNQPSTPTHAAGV
Assay: KINOMEscan competition binding
Conditions: compound 10.0 µM
experimentalReadout: kinase still bound, per cent of control

chemicalStructure	experimentalReadout	measValue
CCCS(=O)(=O)Nc1ccc(F)c(C(=O)c2c[nH]c3ncc(-c4ccc(Cl)cc4)cc23)c1F	kinase still bound, per cent of control	10%
Cc1ccc(C(=O)Nc2cccc(C(F)(F)F)c2)cc1Nc1cncc(C(N)=O)c1	kinase still bound, per cent of control	100%
COc1cc(N2CCN(C)CC2)ccc1Nc1nc(N)c(C(=O)c2c(Cl)cccc2Cl)s1	kinase still bound, per cent of control	100%
CCOc1cc2ncc(C#N)c(Nc3ccc(OCc4ccccn4)c(Cl)c3)c2cc1NC(=O)/C=C/CN(C)C	kinase still bound, per cent of control	0.4%
O=C1Nc2ccc(I)cc2/C1=C/c1cc(Br)c(O)c(Br)c1	kinase still bound, per cent of control	68%
